- SYSTEM_TESTED: β-FGF (Homo sapiens)
- Sequence (P09038 143-288): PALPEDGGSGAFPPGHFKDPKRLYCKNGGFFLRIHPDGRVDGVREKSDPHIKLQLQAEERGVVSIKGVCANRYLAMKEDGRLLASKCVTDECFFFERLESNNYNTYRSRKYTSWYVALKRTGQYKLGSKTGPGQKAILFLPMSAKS
- ASSAY_METHOD_TEXT: ELISA for determination of binding of β-FGF to heparin
- CONDITION_DESCRIPTION: inhibition of β-FGF binding to heparin; NI = no inhibition
Listing of recorded IC50 by entry.
Kindly provide the numeric value in nM only, without the unit symbol.

Example cases with answers are listed next.
[
  {
    "SMILES_RECORD": "CN(C)CCNC(=O)CC(C)(C)CN1C(=O)c2cc3oc(-c4ccc(Cl)cc4)cc3n2C1=S",
    "RESULT_VALUE": 470
  },
  {
    "SMILES_RECORD": "CC(C)(CC(=O)O)CN1C(=O)c2cc3oc(-c4ccc(Cl)cc4)cc3n2C1=S",
    "RESULT_VALUE": 1800
  },
  {
    "SMILES_RECORD": "CN1CCN(C(=O)CC(C)(C)CN2C(=O)c3cc4oc(-c5ccc(Cl)cc5)cc4n3C2=S)CC1",
    "RESULT_VALUE": 200
  }
]

Let us move to another entry and its IC50.
β-FGF (Homo sapiens) data for `Cc1c(N2C(=O)c3cc4oc(-c5ccc(Cl)cc5)cc4n3C2=S)c(=O)n(-c2ccccc2)n1C` ; its IC50: 810

* * *

- SYSTEM_TESTED: recombinant human pro-heparanase (H60) (Homo sapiens, UniProt Q9Y251)
- Construct: Heparanase maturation involves the removal of the signal peptide, transforming the 65 kDa pre-pro-heparanase into a 60 kDa pro-heparanase
- Sequence (Q9Y251 36-543): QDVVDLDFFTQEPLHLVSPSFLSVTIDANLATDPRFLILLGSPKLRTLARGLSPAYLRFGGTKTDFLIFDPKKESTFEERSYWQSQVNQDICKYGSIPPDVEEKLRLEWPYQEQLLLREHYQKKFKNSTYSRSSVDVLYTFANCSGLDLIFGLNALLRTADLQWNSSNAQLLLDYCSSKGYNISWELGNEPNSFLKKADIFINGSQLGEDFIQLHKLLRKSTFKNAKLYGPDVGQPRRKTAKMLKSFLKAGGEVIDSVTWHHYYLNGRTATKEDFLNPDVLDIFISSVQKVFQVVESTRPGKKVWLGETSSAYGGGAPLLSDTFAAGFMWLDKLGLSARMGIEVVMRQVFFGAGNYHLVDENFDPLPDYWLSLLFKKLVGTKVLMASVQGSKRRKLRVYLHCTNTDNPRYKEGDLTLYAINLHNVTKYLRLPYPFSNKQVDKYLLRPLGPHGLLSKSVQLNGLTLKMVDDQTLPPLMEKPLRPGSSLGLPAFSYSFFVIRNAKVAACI
- ASSAY_METHOD_TEXT: Pro-heparanase (H60) activation in a cell-based assay
- CONDITION_DESCRIPTION: inhibition of pro-heparanase activation in CHO cells; NI = no inhibition
pIC50 for assorted compounds
The scale used: pIC50 is minus the common logarithm of the concentration in molar units.

[
  {
    "SMILES_RECORD": "CCOC(=O)CCCN1C(=O)c2cc3oc(-c4ccc(Cl)cc4)cc3n2C1=S",
    "pIC50": 6.12
  },
  {
    "SMILES_RECORD": "O=C(O)CCCN1C(=O)c2cc3sc(-c4ccc([N+](=O)[O-])cc4)cc3n2C1=S",
    "pIC50": 6.15
  },
  {
    "SMILES_RECORD": "CCOP(=O)(CCCN1C(=O)c2cc3oc(-c4ccc(Cl)cc4)cc3n2C1=S)OCC",
    "pIC50": 6.59
  },
  {
    "SMILES_RECORD": "CCOC(=O)CCCn1c(=S)sc2c(N)snc21",
    "pIC50": 4.60
  },
  {
    "SMILES_RECORD": "CN1CCN(C(=O)CC(C)(C)CN2C(=O)c3cc4oc(-c5ccc(Cl)cc5)cc4n3C2=S)CC1",
    "pIC50": 7.05
  }
]

Input `CN(C)CCCNC(=O)CC(C)(C)CN1C(=O)c2cc3oc(-c4ccc(Cl)cc4)cc3n2C1=S` . Output pIC50: 6.80

Value of pIC50 reported for the compound `CC(C)(CC(=O)NCC(=O)OC(C)(C)C)CN1C(=O)c2cc3oc(-c4ccc(Cl)cc4)cc3n2C1=S` is 6.38

Input `O=C(O)CCCN1C(=O)c2cc3oc(-c4ccc(Cl)cc4)cc3n2C1=S` . Output pIC50: 6.00

pIC50 measured on `CN(CC(=O)O)C(=O)CC(C)(C)CN1C(=O)c2cc3oc(-c4ccc(Cl)cc4)cc3n2C1=S` = 6.00

Field pIC50 (entry `CCOC(=O)CCCn1c(=S)sc2c(I)snc21` ) reads 5.15

Documented pIC50 of `CCOC(=O)CCCN1C(=O)c2cc3oc(-c4cccc(C(F)(F)F)c4)cc3n2C1=S` : 5.57

GET /value?item= `CCN(CC)C(=O)CC1(CN2C(=O)c3cc4oc(-c5ccc(Cl)cc5)cc4n3C2=S)CCCCC1` &field=pIC50 returns 5.82

`COC(=O)CN(C)C(=O)CC(C)(C)CN1C(=O)c2cc3oc(-c4ccc(Cl)cc4)cc3n2C1=S` has a reported pIC50 of 6.49

Form field pIC50, entry `CC(C)(CC(=O)N1CCOCC1)CN1C(=O)c2cc3oc(-c4ccc(Cl)cc4)cc3n2C1=S` : 6.82

Input `O=C(O)CCCN1C(=O)c2cc3oc(-c4cccc(C(F)(F)F)c4)cc3n2C1=S` . Output pIC50: 6.11

* * *

For vascular endothelial growth factor (VEGF) (Homo sapiens, UniProt P15692), measured IC50 is reported for the entries below.
Dear colleague, please return just the value in nM, with no unit written.

[
  {
    "SMILES_RECORD": "CC(C)(CC(=O)NCC(=O)O)CN1C(=O)c2cc3oc(-c4ccc(Cl)cc4)cc3n2C1=S",
    "UNIT_TAG": "nM",
    "IC50": 2000
  },
  {
    "SMILES_RECORD": "COCCCN1C(=O)c2cc3oc(-c4ccc(Cl)cc4)cc3n2C1=S",
    "UNIT_TAG": "nM",
    "IC50": 170
  }
]

Per the reported vascular endothelial growth factor (VEGF) (Homo sapiens, UniProt P15692) data, `CN(C)CCCNC(=O)CC(C)(C)CN1C(=O)c2cc3oc(-c4ccc(Cl)cc4)cc3n2C1=S` has IC50 of 180

Record `CCOC(=O)CCCN1C(=O)c2cc3oc4ccc([N+](=O)[O-])cc4c3n2C1=S` has vascular endothelial growth factor (VEGF) (Homo sapiens, UniProt P15692) IC50 equal to 22500

* * *

- SYSTEM_TESTED: recombinant human pro-heparanase (H60) (Homo sapiens, UniProt Q9Y251)
- Construct: Heparanase maturation involves the removal of the signal peptide, transforming the 65 kDa pre-pro-heparanase into a 60 kDa pro-heparanase
- ASSAY_METHOD_TEXT: Pro-heparanase (H60) activation in a cell-based assay
- CONDITION_DESCRIPTION: inhibition of pro-heparanase activation in CHO cells; NI = no inhibition
EXPERIMENTAL_ENDPOINT: IC50
Phrase the answer as number then unit, nothing more needed.

[
  {
    "MOLECULE": "CCOC(=O)CCCN1C(=O)c2cc3oc(Oc4ccc([N+](=O)[O-])cc4)cc3n2C1=S [Compound 33]",
    "SYSTEM_TESTED": "recombinant human pro-heparanase (H60) (Homo sapiens, UniProt Q9Y251)",
    "RESULT_VALUE": "16000 nM"
  }
]

Form: molecule = CC(C)(CC(=O)NO)CN1C(=O)c2cc3oc(-c4ccc([N+](=O)[O-])cc4)cc3n2C1=S [Compound 9] ; IC50 = 170 nM

The recorded IC50 for CCN(CC)C(=O)CCCN1C(=O)c2cc3oc(-c4ccc(Cl)cc4)cc3n2C1=S [Compound 6] is 1200 nM

Reported IC50 ( O=C(O)CCCN1C(=O)c2cc3oc(-c4ccc([N+](=O)[O-])cc4)cc3n2C1=S [Compound 2] ) = 1000 nM

Value of measured IC50 for the entry CCOC(=O)CC(C)(C)CN1C(=O)c2cc3oc(-c4ccc(Cl)cc4)cc3n2C1=S [Compound 10] : 1500 nM

CC(C)(CC(=O)O)CN1C(=O)c2cc3oc(-c4ccc(Cl)cc4)cc3n2C1=S [Compound 11] yielded IC50 of 270 nM

Quick note, IC50 for CN(C)CCNC(=O)CC(C)(C)CN1C(=O)c2cc3oc(-c4ccc(Cl)cc4)cc3n2C1=S [Compound 14] landed at 120 nM

CC(C)(CC(=O)N1CCC[C@@H]1C(=O)O)CN1C(=O)c2cc3oc(-c4ccc(Cl)cc4)cc3n2C1=S [Compound 23] has a reported IC50 of 820 nM

Measured IC50, CCOC(=O)CCCN1C(=O)c2cc3sc(-c4ccc([N+](=O)[O-])cc4)cc3n2C1=S [Compound 31] : 560 nM

* * *

Entries and their IC50
- SYSTEM_TESTED: vascular endothelial growth factor (VEGF) (Homo sapiens, UniProt P15692)
- Sequence (P15692 27-191 isoform P15692-4): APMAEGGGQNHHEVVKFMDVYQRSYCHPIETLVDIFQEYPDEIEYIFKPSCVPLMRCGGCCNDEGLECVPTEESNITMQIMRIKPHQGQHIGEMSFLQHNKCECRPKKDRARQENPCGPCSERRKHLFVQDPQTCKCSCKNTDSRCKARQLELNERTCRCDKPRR
Write it as a number; the unit nM goes unstated.

[
  {
    "MOLECULE": "CCOC(=O)CC(C)(C)CN1C(=O)c2cc3oc(-c4ccc(Cl)cc4)cc3n2C1=S [Compound 10]",
    "IC50, nM": 170
  },
  {
    "MOLECULE": "CN(C)CCNC(=O)CC(C)(C)CN1C(=O)c2cc3oc(-c4ccc(Cl)cc4)cc3n2C1=S [Compound 14]",
    "IC50, nM": 260
  },
  {
    "MOLECULE": "CCOP(=O)(CCCN1C(=O)c2cc3oc(-c4ccc(Cl)cc4)cc3n2C1=S)OCC [Compound 27]",
    "IC50, nM": 300
  },
  {
    "MOLECULE": "CCN(CC)C(=O)CCCN1C(=O)c2cc3oc(-c4ccc(Cl)cc4)cc3n2C1=S [Compound 6]",
    "IC50, nM": 160
  },
  {
    "MOLECULE": "CC(C)(CC(=O)NCC(=O)OC(C)(C)C)CN1C(=O)c2cc3oc(-c4ccc(Cl)cc4)cc3n2C1=S [Compound 19]",
    "IC50, nM": 510
  }
]

O=C(O)CCCN1C(=O)c2cc3oc(-c4cccc(C(F)(F)F)c4)cc3n2C1=S [Compound 26] has a reported IC50 of 4800

The molecule O=C(O)CCCN1C(=O)c2cc3oc(-c4ccc(Cl)cc4)cc3n2C1=S [Compound 5] showed IC50 equal to 6000
